Where do these numbers come from? They come from PubChem BioAssay.

Assay: basal HepG2 mitochondrial membrane potential changes, profiling panel, cell-based, JC-1 fluorescence, 24 h, 100 nL compound (AID 1167); note: test concentration not given here
Conditions: higher = more signal
Please provide measured z-score for the entries that follow.
One number for each entry.

Below: 3 compounds and their reported z-score.
INSERT INTO results (chemical_smiles, readout_kind, endpoint_result) VALUES
  ('C=CCOC(=O)[C@@H]1[C@H]2C(=O)O[C@H](c3ccccc3)[C@H](c3ccccc3)N2[C@H](c2ccc(OCCOC(=O)[C@@H]3C[C@@H]4C(=O)NCC(=O)N4[C@@H]3c3ccc(O)cc3)cc2)[C@@]12C(=O)Nc1ccc(I)cc12', 'z-score', -2.11),
  ('C=CCN1C(=O)[C@]2(O[C@H](CCn3cc([C@H](O)c4ccccc4)nn3)[C@@H]([Si](C)(C)c3ccc(OC)cc3)[C@@H]2C)c2cc(N3CCC3=O)ccc21', 'z-score', 2.75),
  ('COCCOC(=O)N1C(=O)[C@@]2(c3cc(C#Cc4ccc(OC)cc4)ccc31)[C@H](c1ccc(O)cc1)N1[C@H](c3ccccc3)[C@H](c3ccccc3)OC(=O)[C@H]1[C@@H]2C(=O)N1CCc2cc(OC)c(OC)cc2C1', 'z-score', 0.793);

Query string: Any idea what z-score was measured for COc1ccc(CCNC(=O)[C@@H]2c3ccccc3C(=O)N(Cc3ccccc3Cl)[C@H]2c2ccc(CO)cc2)cc1 ?
Result string: 1.64

###

System: Noggin (protein binding on small-molecule microarray)
Experiment: Noggin binders on small-molecule microarray, primary screen, biochemical, 635/667 nm fluorescence (AID 1095);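 note: score merges 667 nm feature fluorescence with signal to noise over triplicate slides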
Conditions: 635 nm fluorescence, higher = more signal
Please provide measured composite z-score for the entries that follow.
Give bare numbers.

Below: 3 molecules and their reported composite z-score.
INSERT INTO results (molecule, readout_kind, endpoint_result) VALUES
  ('C=CCC(OC(C)=O)[C@@H]1[C@@H](N(Cc2cc3ccccc3o2)C(=O)c2cccc3ccccc23)c2cc(OCCCO)ccc2N1C(=O)c1ccc(-c2ccccc2)cc1 (some centres not stated)', 'composite z-score', 0.293),
  ('[N-]=[N+]=NCc1ccccc1[C@@H]1OC(c2ccc(OCCCO)cc2)=N[C@]1(Cc1ccccc1)C(N)=O', 'composite z-score', 0.683),
  ('CCC[C@@H]1C[C@@]1(CCC)[C@@H](NS(=O)(=O)c1cccc2cccnc12)c1ccc(Cl)cc1', 'composite z-score', -1.22);

Give one value of composite z-score per listed molecule.
1. CCc1cccc(NC(=O)O[C@H]2[C@H](OC(=O)Nc3ccccc3-c3ccccc3)[C@@H](OC(=O)Nc3ccccc3-c3ccccc3)[C@@H](OC)O[C@@H]2CO)c1
2. CC(C)C(O)C1C=CC2C(=O)NC(=O)C2N1Nc1ccc(Cl)cc1Cl (configuration not stated)
3. C=C(CCCC)C(=O)CC[C@@H](OC(=O)c1ccccc1-c1ccccc1C(=O)O)c1ccc(OCCO)cc1

Result string:
[0.666, -0.463, 0.931]

Query string: Any idea what composite z-score was measured for O=C1NC(=O)C2C1C=CC(C(O)c1cccs1)N2Nc1ccc(Cl)cc1Cl (configuration not stated) ?
Result string: -0.394

###

Test system: Sonic hedgehog protein (Shh)
Assay: small-molecule binders of Shh protein, primary screen, biochemical, small-molecule microarray, 635/667 nm fluorescence (AID 1151);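 note: Shh protein binding to compounds spotted on small-molecule microarray slides; score combines spot fluorescence intensity with signal-to-noise across triplicate slides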
Settings: small-molecule microarray binding, 635 nm fluorescence; higher = more signal
READOUT KIND: composite z-score
Answers are plain numbers.

INSERT INTO results (molecule, target_or_test_system, endpoint_result) VALUES
  ('[N-]=[N+]=Nc1ccccc1[C@@H]1OC(c2ccc(OCCCO)cc2)=N[C@]1(Cc1ccccc1)C(=O)N1CCOCC1', 'Sonic hedgehog protein (Shh)', -0.3),
  ('COc1ccc(CCNC(=O)[C@@]2(C)c3ccccc3C(=O)N(C(C)C)[C@H]2c2ccc(CO)cc2)cc1', 'Sonic hedgehog protein (Shh)', 0.794),
  ('NC(=O)NCC#Cc1ccc2c(c1)[C@]1(C(=O)N2)[C@H](C(N)=O)[C@H]2C(=O)O[C@H](c3ccccc3)[C@H](c3ccccc3)N2[C@@H]1c1ccc(O)cc1', 'Sonic hedgehog protein (Shh)', -0.41);

Give one value of composite z-score per listed molecule.
1. CCOC(=O)C[C@H]1[C@H](OC(=O)c2ccc(C(=O)c3ccccc3)cc2)[C@@H](NC(=O)c2ccccc2)c2cc(OCCCO)ccc2N1C(=O)c1ccc2ccccc2n1
2. COC(=O)[C@H](Cc1ccccc1)N1CC2=C[C@@H](C3CC3)n3c(=O)n(C)c(=O)n3[C@H]2[C@@H]1[C@@H](O)Cc1ccccc1

Result string:
1. -0.25
2. 1.4

###

Please provide measured composite Z-score for the entries that follow.
Test: small-molecule microarray binders of probe aXIP, primary screen, biochemical, NeuroSMM set, 635/667 nm fluorescence (AID 1119);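 note: probe is the protein aXip251-270 applied at 1 µg/mL to compound-printed slides; binding of probe to printed compounds measured as 667 nm fluorescence plus signal to noise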
Conditions: higher = more signal, called active from +8 up or from −8 down
One number for each entry.

Below: 2 compounds and their reported composite Z-score.
INSERT INTO measurements (compound, readout_kind, endpoint_result) VALUES
  ('CC1CC/C=C\[C@H]2OC34C=CCN(C(C)(C)C)C(=O)[C@H]3N(CCO)C(=O)[C@@H]4C2C(=O)O1 (stereo partly specified)', 'composite Z-score', 0.108),
  ('CC[C@@H]1C=C(C(=O)O)[C@H](c2ccc(Br)cc2)N1S(=O)(=O)c1ccc(C)cc1', 'composite Z-score', 0.142);

Give one value of composite Z-score per listed compound.
1. CC(C)C(O)C1C=CC2C(=O)NC(=O)C2N1Nc1ccc(Cl)cc1Cl (stereo unspecified)
2. N#Cc1ccc(NN2C(C(O)C(c3ccccc3)c3ccccc3)C=CC3C(=O)N(c4ccccc4)C(=O)C32)cc1 (stereo unspecified)
3. CC#CC(=O)Oc1ccccc1C=CC(=O)OCC
4. CC(C)NC(=O)[C@@]1(c2ccc([N+](=O)[O-])cc2)CC(=O)N(C2CCCCC2)[C@@H]1c1ccc(CO)cc1I

Result string:
0.449
-0.442
-0.263
0.691

###

Experiment: PSAC antagonists in infected red cells, primary screen, cell-based, P. falciparum Indochina, OD700, 1 h (AID 1154)
Conditions: P. falciparum Indochina infected RBC osmotic lysis, higher = more signal, called active from +8 up or from −8 down
Please provide measured z-score for the entries that follow.
One number for each entry.

Below: 2 compounds and their reported z-score.
INSERT INTO measurements (chemical_smiles, endpoint_result) VALUES
  ('NCCCCCNC(=O)[C@@H]1C[C@@H]2C(=O)N[C@@H](Cc3ccccc3)C(=O)N2[C@@H]1c1ccc(O)cc1', 1.24),
  ('CCOC(=O)C[C@H]1[C@H](OC(=O)c2ccccc2-c2ccccc2)[C@@H](NC(=O)CC(C)C)c2cc(OCCCO)ccc2N1C(=O)Cc1ccc(OC)cc1', 2.71);

Consider the record given below.
Query string: Any idea what z-score was measured for C=CCOC(=O)[C@H]1[C@@H]2C(=O)O[C@@H](c3ccccc3)[C@@H](c3ccccc3)N2[C@@H](c2ccc(OCCOC(=O)[C@@H]3C[C@@H]4C(=O)N[C@@H](CCCCNC(C)=O)C(=O)N4[C@@H]3c3ccc(O)cc3)cc2)[C@]12C(=O)Nc1ccccc12 ?
Result string: 3.21

###

Target: Luciferin 4-monooxygenase (Photinus pyralis) (UniProt P08659)
Sequence (P08659 whole entry, looked up): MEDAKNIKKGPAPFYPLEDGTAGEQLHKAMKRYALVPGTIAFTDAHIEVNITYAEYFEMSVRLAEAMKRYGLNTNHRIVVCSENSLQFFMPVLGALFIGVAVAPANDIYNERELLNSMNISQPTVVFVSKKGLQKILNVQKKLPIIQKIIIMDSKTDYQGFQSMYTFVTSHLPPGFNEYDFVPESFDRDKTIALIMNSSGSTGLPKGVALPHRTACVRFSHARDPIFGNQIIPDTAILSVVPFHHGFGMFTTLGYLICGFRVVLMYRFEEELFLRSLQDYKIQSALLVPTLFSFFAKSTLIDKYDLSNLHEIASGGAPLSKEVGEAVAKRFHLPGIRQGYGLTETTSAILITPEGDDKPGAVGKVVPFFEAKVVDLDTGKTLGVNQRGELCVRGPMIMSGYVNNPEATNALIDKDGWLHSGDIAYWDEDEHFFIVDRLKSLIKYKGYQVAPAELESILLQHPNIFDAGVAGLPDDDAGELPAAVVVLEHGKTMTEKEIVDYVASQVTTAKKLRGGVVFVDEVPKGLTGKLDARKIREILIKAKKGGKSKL
Assay: firefly luciferase enzyme inhibitors, primary screen, biochemical, luminescence, purified enzyme, 2006 set (AID 1141);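 note: cell-free assay with purified firefly luciferase at 100 ng per well in PBS; test concentration not given here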
Conditions: SteadyGlo luminescence, 30 min, higher = more signal, called active from +8 up or from −8 down
Please provide measured z-score for the entries that follow.
Answers are plain numbers.

INSERT INTO measurements (compound, readout_kind, endpoint_result) VALUES
  ('NC(=O)N1C(=O)C2C(C1=O)C1C=C(c3ccc(CO)cc3)C2C(c2cccs2)N1Cc1cccc(OC(F)(F)F)c1 (configuration not stated)', 'z-score', -2.17),
  ('COc1ccc(C#Cc2ccc3c(c2)[C@]2(C(=O)N3)[C@H](c3ccccc3OCCO)N3[C@H](c4ccccc4)[C@H](c4ccccc4)OC(=O)[C@H]3[C@@H]2C(=O)Nc2nc3ccccc3s2)cc1', 'z-score', -1.36),
  ('O=C1c2ccccc2[C@](Cc2ccccc2I)(C(=O)NCCN2CCOCC2)[C@H](c2ccc(CO)cc2)N1Cc1ccccc1Cl', 'z-score', -0.593),
  ('COC(=O)C(CC#Cc1ccc2c(c1)[C@]1(C(=O)N2)[C@H](c2ccc(OCCO)cc2)N2[C@H](c3ccccc3)[C@H](c3ccccc3)OC(=O)[C@H]2[C@@H]1C(=O)Nc1nc2ccccc2s1)C(=O)OC', 'z-score', -0.877),
  ('C=C(/C(=C/C[C@H](OC(C)=O)c1ccc(CO)o1)c1cc(C(=O)OC)ccc1OC)C(C)C', 'z-score', -1.33),
  ('COc1ccc(C(O)C2C=CC3C(=O)N(Cc4ccccc4)C(=O)C3N2n2cnnc2)cc1OCc1ccccc1 (configuration not stated)', 'z-score', 1.77);

Give one value of z-score per listed compound.
1. CCCC[C@@H]1C[C@H]1[C@@H](NC(=O)C(C)(C)C)c1ccc(C(F)(F)F)cc1
2. O=C1c2ccccc2[C@](Cc2ccccc2I)(C(=O)NCC(F)(F)F)[C@H](c2ccc(CO)cc2)N1Cc1ccccc1Cl
3. O=C1OCCC/C=C\[C@H]2OC34C=CCN(Cc5ccccc5)C(=O)[C@H]3N(CCCO)C(=O)[C@@H]4C12 (some centres not stated)
4. CC(=O)NCCCC[C@@H]1NC(=O)[C@H]2C[C@@H](C(=O)NCCCCCCNC(=O)CS)[C@@H](c3ccc(O)cc3)N2C1=O
5. CCC[C@@H]1C[C@@]1(CCC)[C@@H](NC(=O)c1ccccc1)c1cccc(Cl)c1

Result string:
-3.32
0.406
-1.26
-0.644
0.841

Give one value of z-score per listed compound.
1. CC(C)C(O)C1C=CC2C(=O)N(c3ccccc3)C(=O)C2N1Nc1ccc([N+](=O)[O-])cc1 (configuration not stated)
2. O=C1C2C=CC(C(O)c3cc(C(F)(F)F)cc(C(F)(F)F)c3)N(n3cnnc3)C2C(=O)N1Cc1ccccc1 (configuration not stated)
3. CC(C)C[C@@H]1NC(=O)[C@@H]2C[C@H](C(=O)O)[C@H](c3cccc(OCCO)c3)N2C1=O
4. O=C1O[C@H](c2ccccc2)[C@H](c2ccccc2)N2[C@H]1[C@@H](C(=O)N1CCCCCCC1)[C@]1(C(=O)Nc3ccc(C#CCCO)cc31)[C@H]2c1ccccc1OCCO
5. C=CCN1C(=O)[C@]2(O[C@H](CCn3cc([C@H](O)c4ccccc4)nn3)[C@@H]([Si](C)(C)c3ccc(OC)cc3)[C@@H]2C)c2cc(N3CCC3=O)ccc21
6. Cc1ccc([C@@H]2C[C@@H](Sc3ccccc3)[C@H](C(=O)O)CN2S(=O)(=O)c2ccc(C)cc2)cc1

Result string:
1. 1.18
2. 1.46
3. -0.291
4. -1.35
5. 0.114
6. 1.88
